biological target: T1, Human receptor grade IGFBP-5 (insulin-like growth factor binding protein 5) (human, UniProt P24593 21-272); experiment: VN-peptide array, ligand overlay, immunoblot/ECL, TotalLab spot intensity
T1 construct: Bought recombinant protein, overlaid in solution on the VN-peptide array
T1 sequence (P24593 21-272 limits assumed): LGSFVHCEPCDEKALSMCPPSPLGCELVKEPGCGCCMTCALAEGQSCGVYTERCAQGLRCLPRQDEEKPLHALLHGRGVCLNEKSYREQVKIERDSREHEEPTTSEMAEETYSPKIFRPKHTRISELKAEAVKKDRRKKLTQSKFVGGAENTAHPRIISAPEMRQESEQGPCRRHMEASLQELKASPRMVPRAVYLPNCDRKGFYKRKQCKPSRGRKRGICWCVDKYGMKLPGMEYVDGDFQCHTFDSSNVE
Where no end group is shown, it is not given here.
measured_parameter: Intensity (against -ve control)

Answered examples (2):
KPEGIDSRPETLHPGR (not fully specified (N-terminus); also: free end capped by acetylation, immobilised on cellulose membrane (SPOT synthesis)) [VN-peptide 2A (array grid C12)]	5 fold over negative controls
GIDSRPETLHPGRPQP (not fully specified (N-terminus); also: free end capped by acetylation, immobilised on cellulose membrane (SPOT synthesis)) [VN-peptide 2B (array grid C13)]	7 fold over negative controls

Hi, could you look up Intensity (against -ve control) for each item in my list?
1. TRQPQFISRDWHGVPG (not fully specified (N-terminus); also: free end capped by acetylation, immobilised on cellulose membrane (SPOT synthesis)) [VN-peptide 6C (array grid G14)]
2. RVNLRTRRVDTVDPPY (not fully specified (N-terminus); also: free end capped by acetylation, immobilised on cellulose membrane (SPOT synthesis)) [VN-peptide 8B (array grid J5)]

Response:
1: 5 fold over negative controls; 2: 7 fold over negative controls
